Where a name gives a salt, the structure may show the parent alone.
Exercise: state measured melting point for each of the compounds provided.

May I ask what melting point has been recorded for CN(C)CCn1cc(S(=O)(=O)c2cccs2)c2cccnc21 (as salt: hydrochloride) ?
212 to 216 °C

And what about the compound CN(C)CCn1cc(S(=O)(=O)c2ccccc2C(F)(F)F)c2cccnc21 (as salt: hydrochloride) ?
196 to 198 °C

What do you have for CN(C)CCn1cc(S(=O)(=O)c2ccccc2)c2nc(Cl)ccc21 ?
244 to 246 °C

Again, but for Cc1c(S(=O)(=O)c2ccc3ccccc3c2)c2cccnc2n1CCN(C)C
238 to 240 °C

# repeat for CN(C)CCn1cc(S(=O)(=O)c2c(Cl)nc3sccn23)c2cccnc21 (as salt: hydrochloride)
180 to 182 °C

Would you mind doing NCCn1cc(S(=O)(=O)c2cccc3ccccc23)c2cccnc21 (as salt: hydrochloride) as well?
148 to 170 °C

Can you check COc1ccc2c(n1)c(S(=O)(=O)c1cccc3ccccc13)cn2CCN(C)C next?
233 to 235 °C

Next compound: CC(CN)n1cc(S(=O)(=O)c2ccccc2)c2cccnc21 (centres unmarked) (as salt: hydrochloride)
180 to 185 °C

----------
Where a name gives a salt, the structure may show the parent alone.
Can you tell me melting point for the items I'm about to list?

Endpoint output: melting point of CCN(CC)CCn1cc(S(=O)(=O)c2cccc(Cl)c2)c2cccnc21 . Value?
74 to 76 °C

One more molecule: NCCn1cc(S(=O)(=O)c2cccs2)c2cccnc21 (as salt: hydrochloride)
202 to 204 °C

Same lookup for NCCn1cc(S(=O)(=O)c2cccc(F)c2)c2cccnc21 (as salt: hydrochloride) , please.
202 to 204 °C

Okay, and CN(C)CCn1cc(S(=O)(=O)c2ccc(F)cc2)c2cccnc21 (as salt: hydrochloride) ?
189 to 192 °C

Then this molecule: CN(C)CCn1cc(S(=O)(=O)c2cc(Cl)cc(Cl)c2)c2cccnc21 (as salt: hydrochloride)
227 to 232 °C

Record: CNCCn1cc(S(=O)(=O)c2cccc(C)c2)c2cccnc21
244 to 246 °C

Request: O=S(=O)(c1cn(CCN(Cc2ccccc2)Cc2ccccc2)c2ncccc12)c1c(Cl)nc2sccn12
140 to 145 °C

Would you kindly repeat that for COc1ccc2c(n1)c(S(=O)(=O)c1cccc(F)c1)cn2CCN(C)C ?
208 to 212 °C

Repeat for the following molecule: COc1ccc2c(n1)c(S(=O)(=O)c1ccc(Br)cc1)cn2CCN(C)C
225 to 226 °C

Queued: CN(C)CCn1cc(S(=O)(=O)c2cccc(C#N)c2)c2cccnc21
148 to 150 °C

Another molecule: CN(C)CCn1cc(S(=O)(=O)c2cccc(C(F)(F)F)c2)c2cccnc21 (as salt: hydrochloride)
108 to 112 °C

Then this molecule: O=S(=O)(c1cn(CCNCc2ccccc2)c2ncccc12)c1c(Cl)nc2sccn12
173 to 175 °C

Same read-out for O=S(=O)(c1cccc(F)c1)c1cn(CCN2CCOCC2)c2ncccc12 (as salt: hydrochloride) ?
127 to 129 °C

Try CN(C)CCn1cc(S(=O)(=O)c2cccc3ccccc23)c2cccnc21 (as salt: hydrochloride) next.
203 to 206 °C

One more molecule: CNCCn1cc(S(=O)(=O)c2c(Cl)nc3sccn23)c2cccnc21
182 to 186 °C

What do you get for NCCn1cc(S(=O)(=O)c2ccc3ccccc3c2)c2cccnc21 (as salt: hydrochloride) ?
233 to 238 °C
